- Test system: MCF-7 cells
- protocol: MCF7 Viability Assay (Breast Cancer Cell Viability Assay)
- Type: cell-based
- condition_info: Homo sapiens, MCF7, 120 h, 5 days' compound exposure, CellTiter-Glo
For each of the compounds below, state its IC50.

The observed IC50 for O=C(O)/C=C/c1ccc(/C(=C(\c2ccccc2)C2CCC2)c2ccc(-c3cncs3)cn2)cc1 when tested with MCF-7 cells stands at > 100 nM

The observed IC50 for CC/C(=C(/c1ccc(/C=C/C(=O)O)cc1)c1ccc(-c2cn[nH]c2)cc1)c1ccccc1 when tested with MCF-7 cells stands at ≤ 100 nM

The observed IC50 for O=C(O)/C=C/c1ccc(/C(=C(\c2ccccc2)C2CCC2)c2ccc(-c3ccon3)cc2)cc1 when tested with MCF-7 cells stands at ≤ 100 nM

The observed IC50 for CC1CCN(c2ccc(/C(=C(/c3ccccc3)C3CCC3)c3ccc(/C=C/C(=O)O)cc3)cc2)CC1 when tested with MCF-7 cells stands at > 100 nM

The observed IC50 for N#Cc1cc(N2CCOCC2)ccc1/C(=C(/c1ccc(F)cc1Cl)C1CCC1)c1ccc(/C=C/C(=O)O)cc1 when tested with MCF-7 cells stands at ≤ 100 nM

The observed IC50 for CC/C(=C(/c1ccc(/C=C/C(=O)O)cc1)c1ccc(N2CCOCC2)cc1)c1ccccc1 when tested with MCF-7 cells stands at ≤ 100 nM

The observed IC50 for CC/C(=C(/c1ccc(/C=C/C(=O)O)cc1)c1cccc(-c2cscn2)c1)c1ccccc1 when tested with MCF-7 cells stands at > 100 nM

The observed IC50 for CC/C(=C(/c1ccc(/C=C/C(=O)O)cc1)c1ccc(-c2cnsc2)cc1)c1ccccc1 when tested with MCF-7 cells stands at > 100 nM

The observed IC50 for O=C(O)/C=C/c1ccc(/C(=C(\c2ccccc2)C2CCC2)c2ccc(-c3cn[nH]c3)cc2)cc1 when tested with MCF-7 cells stands at ≤ 100 nM

The observed IC50 for O=C(O)/C=C/c1ccc(/C(=C(\c2ccccc2)C2CCC2)c2ccc(-c3cnn(CCO)c3)cc2)cc1 when tested with MCF-7 cells stands at ≤ 100 nM

The observed IC50 for CN(C)CCn1cc(-c2ccc(/C(=C(/c3ccccc3)C3CCC3)c3ccc(/C=C/C(=O)O)cc3)cc2)cn1 when tested with MCF-7 cells stands at ≤ 100 nM

The observed IC50 for COc1cc(C)c(/C(=C(\c2ccc(/C=C/C(=O)O)cc2)c2ccc(N3CCOCC3)cc2)C2CCC2)cn1 when tested with MCF-7 cells stands at ≤ 100 nM

The observed IC50 for CC/C(=C(/c1ccc(/C=C/C(=O)O)cc1)c1ccc(N2CCN(C)CC2)cc1)c1ccccc1 when tested with MCF-7 cells stands at > 100 nM

The observed IC50 for CC/C(=C(/c1ccc(/C=C/C(=O)O)cc1)c1ccc(-c2cncs2)cc1F)c1ccccc1 when tested with MCF-7 cells stands at ≤ 100 nM

The observed IC50 for CC/C(=C(/c1ccc(/C=C/C(=O)O)cc1)c1ccc(-c2ccn[nH]2)cc1)c1ccccc1 when tested with MCF-7 cells stands at > 100 nM

----------
- System: MCF-7 cells
- protocol: MCF7 Viability Assay (Breast Cancer Cell Viability Assay)
- Type: cell-based
- condition_info: Homo sapiens, MCF7, 120 h, 5 days' compound exposure, CellTiter-Glo
- Description: MCF-7 cells were adjusted to a concentration of 20,000 cells per mL in RPMI containing 10% FBS and 20 mM HEPES. […] After 5 days' compound exposure, 16 μL of CellTiter-GLo (Promega, Madison Wis.) was added to the cells, and the relative luminescence units (RLUs) of each well were determined. […] The Percent viability of each sample was determined as follows: (RLU sample-RLU background/RLU untreated cells-RLU background)×100=% viability.
pIC50: −log10 of the molar value.
observed_property: pIC50

Per the record, Cc1cscc1/C(=C(\c1ccc(/C=C/C(=O)O)cc1)c1ccc(-c2cnn(CCO)c2)cc1)C1CCC1 [Example 68] has pIC50 of ≥ 7.00

Per the record, COc1ccc(/C(=C(\c2ccc(/C=C/C(=O)O)cc2)c2ccc(-c3cn[nH]c3)cc2)C2CCC2)c(Cl)c1 [Example 51] has pIC50 of ≥ 7.00

Per the record, CC/C(=C(/c1ccc(/C=C/C(=O)O)cc1)c1ccc(N2CCCCC2)cc1)c1ccccc1 [Example 24] has pIC50 of < 7.00

Per the record, N#Cc1ccc(/C(=C(\c2ccc(/C=C/C(=O)O)cc2)c2ccc(N3CCOCC3)cc2)C2CCC2)c(Cl)c1 [Example 45] has pIC50 of ≥ 7.00

Per the record, O=C(O)/C=C/c1ccc(/C(=C(\c2ccc(C(F)(F)F)cc2Cl)C2CCC2)c2ccc(N3CCOCC3)cc2)cc1 [Example 48] has pIC50 of ≥ 7.00

Per the record, O=C(O)/C=C/c1ccc(/C(=C(\c2ccc(F)cc2Cl)C2CCC2)c2ccc(-c3cnn(CCO)c3)cc2)cc1 [Example 69] has pIC50 of ≥ 7.00

Per the record, CC/C(=C(/c1ccc(/C=C/C(=O)O)cc1)c1ccc(-c2cscn2)cc1)c1ccccc1 [Example 10] has pIC50 of < 7.00
